Test system: S. aureus COL (MRSA)
conditionsUsed: Table S2; full MH, pH 8.5
Where a SMILES comes first, the peptide text is derived from it. [ ]: non-standard residue; d: D form. Nleu = CC(C)CNCC(=O)O; Nlys = NCCCCNCC(=O)O
Kindly supply the reported MIC S. aureus COL (MRSA) Full MH 8.5 values for the records listed here.
One number for each entry, in µg/mL.

Known results for molecules:
molecule: CC(C)C[C@H](NC(=O)[C@H](CC(C)C)NC(=O)[C@H](CCCCN)NC(=O)[C@@H](N)CCCCN)C(=O)N[C@@H](CCCCN)C(=O)N[C@@H](CC(C)C)C(=O)N[C@@H](CC(C)C)C(=O)N[C@@H](CCCCN)C(=O)N(CC(=O)N(CC(=O)N(CC(N)=O)CC(C)C)CC(C)C)CC(C)C [EB3] (H-KKLLKLLK[Nleu][Nleu][Nleu]-NH2)
quantityUnit: µg/mL
testValue: 32

molecule: CC(C)C[C@H](NC(=O)[C@H](CC(C)C)NC(=O)[C@H](CC(C)C)NC(=O)[C@H](CCCCN)NC(=O)[C@H](CC(C)C)NC(=O)[C@H](CC(C)C)NC(=O)CN(CCCCN)C(=O)[C@H](CC(C)C)NC(=O)[C@H](CC(C)C)NC(=O)CN(CCCCN)C(=O)CNCCCCN)C(N)=O [EB6, kkLLkLLKLLL] (H-[Nlys][Nlys]LL[Nlys]LLKLLL-NH2)
quantityUnit: µg/mL
testValue: 16

Below is a list of molecules. For each, state its recorded MIC S. aureus COL (MRSA) Full MH 8.5.
1. CC(C)C[C@H](NC(=O)[C@H](CC(C)C)NC(=O)[C@H](CC(C)C)NC(=O)[C@@H](CCCCN)NC(=O)[C@H](CC(C)C)NC(=O)[C@H](CC(C)C)NC(=O)[C@@H](CCCCN)NC(=O)[C@H](CC(C)C)NC(=O)[C@H](CC(C)C)NC(=O)[C@@H](CCCCN)NC(=O)[C@H](N)CCCCN)C(N)=O [ln69, kkLLkLLkLLL, reference compound] (H-[dK][dK]LL[dK]LL[dK]LLL-NH2)
2. CC(C)C[C@H](NC(=O)[C@H](CCCCN)NC(=O)[C@@H](N)CCCCN)C(=O)N[C@@H](CC(C)C)C(=O)N[C@@H](CCCCN)C(=O)N(CC(=O)N(CC(=O)N(CCCCN)CC(=O)N(CC(=O)N(CC(=O)N(CC(N)=O)CC(C)C)CC(C)C)CC(C)C)CC(C)C)CC(C)C [EB4, KKLLKllklll] (H-KKLLK[Nleu][Nleu][Nlys][Nleu][Nleu][Nleu]-NH2)
3. CC(C)C[C@H](NC(=O)CN(CC(C)C)C(=O)[C@H](CCCCN)NC(=O)CNCCCCN)C(=O)N(CCCCN)CC(=O)N[C@@H](CC(C)C)C(=O)N(CC(=O)N[C@@H](CCCCN)C(=O)N(CC(=O)N[C@@H](CC(C)C)C(=O)N(CC(N)=O)CC(C)C)CC(C)C)CC(C)C [EB10, kKlLkLlKlLl] (H-[Nlys]K[Nleu]L[Nlys]L[Nleu]K[Nleu]L[Nleu]-NH2)

1: 16; 2: 16; 3: 32

Below is a list of molecules. For each, state its recorded MIC S. aureus COL (MRSA) Full MH 8.5.
1. CC(C)C[C@H](NC(=O)CN(CCCCN)C(=O)[C@H](CC(C)C)NC(=O)[C@H](CC(C)C)NC(=O)[C@H](CCCCN)NC(=O)[C@H](CC(C)C)NC(=O)[C@H](CC(C)C)NC(=O)[C@H](CCCCN)NC(=O)CNCCCCN)C(=O)N[C@@H](CC(C)C)C(=O)N(CC(N)=O)CC(C)C [EB2, kKLLKLLkLLl] (H-[Nlys]KLLKLL[Nlys]LL[Nleu]-NH2)
2. CC(C)C[C@H](NC(=O)[C@H](CCCCN)NC(=O)CNCCCCN)C(=O)N[C@@H](CC(C)C)C(=O)N[C@@H](CCCCN)C(=O)N[C@@H](CC(C)C)C(=O)N[C@@H](CC(C)C)C(=O)N[C@@H](CCCCN)C(=O)N[C@@H](CC(C)C)C(=O)N[C@@H](CC(C)C)C(=O)N(CC(N)=O)CC(C)C [EB1] (H-[Nlys]KLLKLLKLL[Nleu]-NH2; N-terminus assumed)

[32, 32]

====

Tested on: ZEM-1A (clinical MDR P. aeruginosa isolate)
conditionsUsed: CSV; […] MH at pH 8.5
Where a SMILES comes first, the peptide text is derived from it. [ ]: non-standard residue; d: D form. Nleu = CC(C)CNCC(=O)O; Nlys = NCCCCNCC(=O)O
measuredParameter: MIC P. aeruginosa ZEM-1A, […] MH at pH 8.5 (ug/mL)
Numbers only, in ug/mL.

Using the record for CC(C)C[C@H](NC(=O)[C@H](CC(C)C)NC(=O)[C@H](CC(C)C)NC(=O)[C@H](CCCCN)NC(=O)[C@H](CC(C)C)NC(=O)[C@H](CC(C)C)NC(=O)CN(CCCCN)C(=O)CN(CC(C)C)C(=O)CN(CC(C)C)C(=O)CN(CCCCN)C(=O)CNCCCCN)C(N)=O [EB5, kkllkLLKLLL] (H-[Nlys][Nlys][Nleu][Nleu][Nlys]LLKLLL-NH2) , report its MIC P. aeruginosa ZEM-1A, […] MH at pH 8.5. 2

====

Kindly supply the reported MIC E. coli W3110 […] values for the records listed here.
Tested on: E. coli W3110
conditionsUsed: diluted MH ([…] MH, pH 8.5) per Table 1 footnote b, 16–20 h at 37 °C
Where a SMILES comes first, the peptide text is derived from it. [ ]: non-standard residue; d: D form. Nleu = CC(C)CNCC(=O)O; Nlys = NCCCCNCC(=O)O

Below is a list of molecules. For each, state its recorded MIC E. coli W3110 […].
1. CC(C)C[C@H](NC(=O)[C@H](CCCCN)NC(=O)CNCCCCN)C(=O)N[C@@H](CC(C)C)C(=O)N[C@@H](CCCCN)C(=O)N[C@@H](CC(C)C)C(=O)N[C@@H](CC(C)C)C(=O)N[C@@H](CCCCN)C(=O)N[C@@H](CC(C)C)C(=O)N[C@@H](CC(C)C)C(=O)N(CC(N)=O)CC(C)C [EB1] (H-[Nlys]KLLKLLKLL[Nleu]-NH2; N-terminus assumed)
2. CC(C)C[C@H](NC(=O)CN(CC(C)C)C(=O)[C@H](CCCCN)NC(=O)CNCCCCN)C(=O)N(CCCCN)CC(=O)N[C@@H](CC(C)C)C(=O)N(CC(=O)N[C@@H](CCCCN)C(=O)N(CC(=O)N[C@@H](CC(C)C)C(=O)N(CC(N)=O)CC(C)C)CC(C)C)CC(C)C [EB10, kKlLkLlKlLl] (H-[Nlys]K[Nleu]L[Nlys]L[Nleu]K[Nleu]L[Nleu]-NH2)
3. CC(C)C[C@H](NC(=O)[C@H](CC(C)C)NC(=O)[C@H](CC(C)C)NC(=O)[C@H](CCCCN)NC(=O)[C@H](CC(C)C)NC(=O)[C@H](CC(C)C)NC(=O)CN(CCCCN)C(=O)CN(CC(C)C)C(=O)CN(CC(C)C)C(=O)CN(CCCCN)C(=O)CNCCCCN)C(N)=O [EB5, kkllkLLKLLL] (H-[Nlys][Nlys][Nleu][Nleu][Nlys]LLKLLL-NH2)

["2 µg/mL", "2 to 4 µg/mL", "2 µg/mL"]

====

System: A. baumannii ATCC19606
conditionsUsed: Table S2; full MH, pH 8.5
Where a SMILES comes first, the peptide text is derived from it. [ ]: non-standard residue; d: D form. Nleu = CC(C)CNCC(=O)O; Nlys = NCCCCNCC(=O)O
Kindly supply the reported MIC A. baumannii ATCC19606 Full MH 8.5 values for the records listed here.

Known results for compounds:
compound: CC(C)C[C@H](NC(=O)[C@H](CC(C)C)NC(=O)[C@H](CCCCN)NC(=O)[C@@H](N)CCCCN)C(=O)N[C@@H](CCCCN)C(=O)N[C@@H](CC(C)C)C(=O)N[C@@H](CC(C)C)C(=O)N[C@@H](CCCCN)C(=O)N(CC(=O)N(CC(=O)N(CC(N)=O)CC(C)C)CC(C)C)CC(C)C [EB3] (H-KKLLKLLK[Nleu][Nleu][Nleu]-NH2)
MIC A. baumannii ATCC19606 Full MH 8.5: > 32 µg/mL
//
compound: CC(C)C[C@H](NC(=O)CN(CC(C)C)C(=O)[C@H](CCCCN)NC(=O)CNCCCCN)C(=O)N(CCCCN)CC(=O)N[C@@H](CC(C)C)C(=O)N(CC(=O)N[C@@H](CCCCN)C(=O)N(CC(=O)N[C@@H](CC(C)C)C(=O)N(CC(N)=O)CC(C)C)CC(C)C)CC(C)C [EB10, kKlLkLlKlLl] (H-[Nlys]K[Nleu]L[Nlys]L[Nleu]K[Nleu]L[Nleu]-NH2)
MIC A. baumannii ATCC19606 Full MH 8.5: > 32 µg/mL

Item: CC(C)C[C@H](NC(=O)[C@H](CCCCN)NC(=O)[C@@H](N)CCCCN)C(=O)N[C@@H](CC(C)C)C(=O)N[C@@H](CCCCN)C(=O)N(CC(=O)N(CC(=O)N(CCCCN)CC(=O)N(CC(=O)N(CC(=O)N(CC(N)=O)CC(C)C)CC(C)C)CC(C)C)CC(C)C)CC(C)C [EB4, KKLLKllklll] (H-KKLLK[Nleu][Nleu][Nlys][Nleu][Nleu][Nleu]-NH2) Test system: A. baumannii ATCC19606 Read-out: MIC A. baumannii ATCC19606 Full MH 8.5 Value: ? 16 µg/mL
